test: physchem; conditions: buffer, pH 7.4
Description: Lipophilicity, logD of compound at pH 7.4 by HPLC analysis
Please respond with Met when measured logD is strictly beneath 2, and with Not met in all other cases.

Some solved cases for reference:
                                   compound  label_value
0  Cc1nc(C)c(C(=O)N2CCCC(c3cc4ncccc4[nH]3)C2)o1 (stereo unspecified)      Not met
1  CC(C)(C)c1cc(C(=O)N2CCCC(c3cc4ncccc4[nH]3)C2)on1 (stereo unspecified)      Not met
2   O=C(c1ccccc1)N1CCC(c2cc3ncccc3[nH]2)CC1      Not met

Record "CCN(CCc1nc2ncccc2[nH]1)C(=O)c1ccccc1" : is its logD strictly below 2? Met
